# System: FMOC06 (patient-derived mucinous ovarian cancer cells)
# protocol.summary: drug sensitivity score (DSS3, normalised partial AUC of % inhibition dose-response) (DSS (score)); higher = more sensitive (stronger inhibition of viability); extreme values may be limits of the assay
# conditions: 72 h; library: FO5A; assay format: 2D, 384-well, CellTiter-Glo
measured.property: drug sensitivity score

These solved cases illustrate the format of a correct answer.
> print(dat)
                                   molecule  result
1  CC1(C)OCCn2c1nc1c(N3CCOCC3)nc(-c3cnc(N)nc3)nc12 [GDC-0084]    10.9
2  Nc1cc(F)ccc1NC(=O)/C=C/c1cnn(C/C=C/c2ccccc2)c1 [RGFP966]       2

From here, focus on the item given below.
For Nc1ccn([C@@H]2O[C@H](CO)[C@@H](O)C2(F)F)c(=O)n1 [Gemcitabine] , write its drug sensitivity score.
5.4

###

# Tested on: FMOC25_2 (patient-derived low-grade serous ovarian cancer cells)
# protocol.summary: drug sensitivity score (DSS3, normalised partial AUC of % inhibition dose-response) (DSS (score)); higher = more sensitive (stronger inhibition of viability); extreme values may be limits of the assay
# conditions: 72 h; library: FO5A; assay format: 2D, 384-well, CellTiter-Glo
Label criterion met when drug sensitivity score is at or above 8; otherwise label criterion not met.

Take a look at these entries with their results.
compound	label.value
C=CC(=O)N1CC/C(=C\c2ccc(F)c([N+](=O)[O-])c2)C(=O)/C(=C/c2ccc(F)c([N+](=O)[O-])c2)C1 [VLX1570]	criterion met
CC#CC(=O)N1CC[C@@H](n2c(=O)n(-c3ccc(Oc4ccccc4)cc3)c3c(N)ncnc32)C1 [Tirabrutinib]	criterion not met
Cc1ccc(-c2cc(C(F)(F)F)nn2-c2ccc(S(N)(=O)=O)cc2)cc1 [Celecoxib]	criterion not met

Please look at the following compound next.
Quick check: does COc1cc2c(Oc3ccc4[nH]c(C)cc4c3F)ncnc2cc1OCCCN1CCCC1 [Cediranib] have drug sensitivity score greater than or equal to 8?
criterion not met

###

# Tested on: FMOC24 (patient-derived high-grade serous ovarian cancer cells)
# protocol.summary: drug sensitivity score (DSS3, normalised partial AUC of % inhibition dose-response) (DSS (score)); higher = more sensitive (stronger inhibition of viability); extreme values may be limits of the assay
# conditions: 72 h; library: FO5A; assay format: 2D, 384-well, CellTiter-Glo
Entries annotated with measured drug sensitivity score
No unit in the answer, please; the number alone is enough.

These solved cases illustrate the format of a correct answer.
compound	measured.property	numeric.value
COc1cc(C)c(/C=C/C(C)=C/C=C/C(C)=C/C(=O)O)c(C)c1C	drug sensitivity score	0
CC#CC(=O)N1CC[C@@H](n2c(=O)n(-c3ccc(Oc4ccccc4)cc3)c3c(N)ncnc32)C1	drug sensitivity score	0
COc1c(C)cnc(Cn2cnc3c(Cl)nc(N)nc32)c1C	drug sensitivity score	10.7

For CCS(=O)(=O)N1CCN(c2ccc(Nc3ncc(C(N)=O)c(NC4CC4)n3)cc2)CC1 , write its drug sensitivity score.
3.3

For Clc1ccccc1C(c1ccccc1)(c1ccccc1)n1cccn1 , write its drug sensitivity score.
0

###

Entries annotated with measured drug sensitivity score
# System: FMOC03 (patient-derived mucinous ovarian cancer cells)
# protocol.summary: drug sensitivity score (DSS3, normalised partial AUC of % inhibition dose-response) (DSS (score)); higher = more sensitive (stronger inhibition of viability); extreme values may be limits of the assay
# conditions: 72 h; library: FO5A; assay format: 2D, 384-well, CellTiter-Glo
No unit in the answer, please; the number alone is enough.

These solved cases illustrate the format of a correct answer.
compound	measured.on	drug sensitivity score
CC(C)(C)c1cc(NC(=O)Nc2ccc(Oc3ccnc4[nH]c(=O)cnc34)cc2F)n(-c2ccccc2)n1	FMOC03	5.3
O=C(NOC[C@H](O)CO)c1ccc(F)c(F)c1Nc1ccc(I)cc1F	FMOC03	11.5
CC(=O)c1cc2c(o1)C(=O)c1ccccc1C2=O	FMOC03	18.2
Cc1cc([C@@H](C)Nc2ccccc2C(=O)O)c2nc(N3CCOCC3)cc(=O)n2c1	FMOC03	0.5
Clc1ccccc1C(c1ccccc1)(c1ccccc1)n1cccn1	FMOC03	0
CCN(CC)CCCC(C)Nc1c2ccc(Cl)cc2nc2ccc(OC)cc12 (stereo unspecified)	FMOC03	9.5
O=C(O)CNC(=O)c1c(O)c2ccccc2n(Cc2ccccc2)c1=O	FMOC03	0
Nc1cc(COc2c(Cl)cc(C[C@H](N)C(=O)O)cc2Cl)c2oc(-c3ccccc3)nc2c1	FMOC03	0

For O=C(NC1CCNCC1)c1n[nH]cc1NC(=O)c1c(Cl)cccc1Cl , write its drug sensitivity score.
12.1

For Cc1sc2c(c1C)C(c1ccc(Cl)cc1)=N[C@@H](CC(=O)Nc1ccc(OCCOCCOCCOCCNc3cccc4c3C(=O)N(C3CCC(=O)NC3=O)C4=O)cc1)c1nnc(C)n1-2 (stereo partly specified) , write its drug sensitivity score.
4

For CCn1c(-c2nonc2N)nc2c(C#CC(C)(C)O)ncc(OC[C@H]3CCCNC3)c21 , write its drug sensitivity score.
2

For CC(=O)OC[C@H]1O[C@@H]([S-])[C@H](OC(C)=O)[C@@H](OC(C)=O)[C@@H]1OC(C)=O.CCP(CC)CC.[Au+] , write its drug sensitivity score.
1.3

For CCNCCS(=O)(=O)NC[C@@]1(c2ccccc2)SC(NC(=O)C(C)(C)C)=NN1C(=O)C(C)(C)C , write its drug sensitivity score.
7.9

###

# Test system: FMOC02_3 (patient-derived low-grade serous ovarian cancer cells)
# protocol.summary: drug sensitivity score (DSS3, normalised partial AUC of % inhibition dose-response) (DSS (score)); higher = more sensitive (stronger inhibition of viability); extreme values may be limits of the assay
# conditions: 72 h; library: FO5A; assay format: 2D, 384-well, CellTiter-Glo
Label rule met when drug sensitivity score is at or above 6; otherwise label rule not met.

Take a look at these entries with their results.
> print(dat)
                    structure.smiles.string  measured.on   label.value
1  CC[C@@H]1C(=O)N(C)c2cnc(Nc3ccc(C(=O)N[C@H]4CC[C@H](N5CCN(CC6CC6)CC5)CC4)cc3OC)nc2N1C(C)C     FMOC02_3      rule met
2  COc1cc(Br)c(Nc2nc(-c3c(C)nc4ncccn34)cs2)c(Br)c1     FMOC02_3  rule not met
3  NC[C@@](O)(c1ccc(Cl)cc1)c1ccc(-c2cn[nH]c2)cc1     FMOC02_3  rule not met
4  CCN1C(=O)CNc2ncc(-c3ccc(-c4nc[nH]n4)nc3C)nc21     FMOC02_3      rule met
5  COc1cc(Nc2ncc3c(n2)-c2ccc(Cl)cc2C(c2c(F)cccc2OC)=NC3)ccc1C(=O)O     FMOC02_3  rule not met
6  CC1(C)CC[C@]2(NC(=O)C(C)(F)F)CC[C@]3(C)[C@H](C(=O)C=C4[C@@]5(C)C=C(C#N)C(=O)C(C)(C)[C@@H]5CC[C@]43C)[C@@H]2C1     FMOC02_3      rule met
7  CC[C@@H]1CN(C(=O)NCC(F)(F)F)C[C@@H]1c1cnc2cnc3[nH]ccc3n12     FMOC02_3  rule not met

Quick check: does Nc1cc(F)ccc1NC(=O)/C=C/c1cnn(C/C=C/c2ccccc2)c1 have drug sensitivity score greater than or equal to 6?
rule not met

###

# System: FMOC14 (patient-derived high-grade serous ovarian cancer cells)
# protocol.summary: drug sensitivity score (DSS3, normalised partial AUC of % inhibition dose-response) (DSS (score)); higher = more sensitive (stronger inhibition of viability); extreme values may be limits of the assay
# conditions: 72 h; library: FO5A; assay format: 2D, 384-well, CellTiter-Glo
Entries annotated with measured drug sensitivity score
No unit in the answer, please; the number alone is enough.

These solved cases illustrate the format of a correct answer.
compound	numeric.value
COc1cc(NS(C)(=O)=O)ccc1Nc1c2ccccc2nc2ccccc12	2.2
CO[C@H]1C[C@@H]2CC[C@@H](C)[C@@](O)(O2)C(=O)C(=O)N2CCCC[C@H]2C(=O)O[C@H]([C@H](C)C[C@@H]2CC[C@@H](OP(C)(C)=O)[C@H](OC)C2)CC(=O)[C@H](C)/C=C(\C)[C@@H](O)[C@@H](OC)C(=O)[C@H](C)C[C@H](C)/C=C/C=C/C=C/1C	3.4

For Nc1nc(Nc2ccc3c(c2)CC[C@@H](N2CCCC2)CC3)nn1-c1cc2c(nn1)-c1ccccc1CCC2 , write its drug sensitivity score.
6.2

For CC(O)c1cc(C(=O)N[C@@H](C)Cn2ccc(-c3ccc(C#N)c(Cl)c3)n2)n[nH]1 (some centres undefined) , write its drug sensitivity score.
0

For Oc1ccc2c(c1)CC[C@H](c1ccccc1)[C@@H]2c1ccc(OCCN2CCCC2)cc1 , write its drug sensitivity score.
1.1

For FC(F)(F)c1ccc(/C=C/c2nc(COc3ccc(CCCCn4ccnn4)cc3)co2)cc1 , write its drug sensitivity score.
0.7

For O=C(c1ccc(C(=O)N2CCC(N3CCCC3)CC2)c(Nc2ccccc2)c1)N1CCC(N2CCCC2)CC1 , write its drug sensitivity score.
0

For O=c1[nH]c(=O)n([C@H]2C[C@H](O)[C@@H](CO)O2)cc1F , write its drug sensitivity score.
0.8

For CC(C)N(C[C@H]1O[C@@H](n2cnc3c(N)ncnc32)[C@H](O)[C@@H]1O)[C@H]1C[C@@H](CCc2nc3cc(C(C)(C)C)ccc3[nH]2)C1 , write its drug sensitivity score.
0

For COc1cc2c(NC3CCN(C(C)C)CC3)nc(N3CCC(F)(F)CC3)nc2cc1OCCCN1CCCC1 , write its drug sensitivity score.
0.1

For C[C@@H](C(=O)O)c1ccc(-c2ccccc2)c(F)c1 , write its drug sensitivity score.
0

For Cn1ncc(Cl)c1-c1cc(C(=O)N[C@H](CN)Cc2cccc(F)c2)sc1Cl , write its drug sensitivity score.
3.2

For CO[C@H]1CC[C@H](N2C(=O)CNc3ncc(-c4ccc(C(C)(C)O)nc4)nc32)CC1 , write its drug sensitivity score.
3.5

For CC[C@H](NC(=O)[C@H](C)NC)C(=O)N1C[C@@H](O)C[C@H]1Cc1c(-c2[nH]c3cc(F)ccc3c2C[C@@H]2C[C@H](O)CN2C(=O)[C@H](CC)NC(=O)[C@H](C)NC)[nH]c2cc(F)ccc12 , write its drug sensitivity score.
4.5

For CC(C)(C#N)c1cc(Cn2cncn2)cc(C(C)(C)C#N)c1 , write its drug sensitivity score.
0

For C=C1C[C@@H]2CC[C@@]34C[C@H]5O[C@H]6[C@@H](O3)[C@H]3O[C@H](CC[C@@H]3O[C@H]6[C@H]5O4)CC(=O)C[C@@H]3[C@@H](OC)[C@@H](C[C@H](O)CN)O[C@H]3C[C@H]3O[C@@H](CC[C@@H]1O2)C[C@@H](C)C3=C , write its drug sensitivity score.
0

For COc1ccc2[nH]cc(/C=C3\C(=O)Nc4ccc(NC(=O)CCN5CCCCC5)cc43)c2c1 , write its drug sensitivity score.
5.1

For Cc1cn(-c2cc(NC(=O)c3ccc(C)c(Nc4nccc(-c5cnccn5)n4)c3)cc(C(F)(F)F)c2)cn1 , write its drug sensitivity score.
0

For CC1(C)CCC(c2ccc(Cl)cc2)=C(CN2CCN(c3ccc(C(=O)NS(=O)(=O)c4ccc(N[C@H](CCN5CCOCC5)CSc5ccccc5)c(S(=O)(=O)C(F)(F)F)c4)cc3)CC2)C1 , write its drug sensitivity score.
7.3

For CO[C@@]12[C@H](COC(N)=O)C3=C(C(=O)C(C)=C(N)C3=O)N1C[C@@H]1N[C@@H]12 , write its drug sensitivity score.
0

For COc1cc(N2CCN(C)CC2)ccc1Nc1nccc(-c2cn(C)c3cnccc23)n1 , write its drug sensitivity score.
0.4

For COc1cc2c(Oc3ccc(NC(=O)C4(C(=O)Nc5ccc(F)cc5)CC4)cc3F)ccnc2cc1OCCCN1CCOCC1 , write its drug sensitivity score.
0.6

For COc1cc2c(cc1OC(C)C)[C@H](c1ccc(Cl)cc1)N(c1ccc(N(C)C[C@H]3CC[C@H](N4CCN(C)C(=O)C4)CC3)cc1)C(=O)C2 , write its drug sensitivity score.
6.3

For Cc1cc(Nc2ncnc3ccc(NC4=NC(C)(C)CO4)cc23)ccc1Oc1ccn2ncnc2c1 , write its drug sensitivity score.
0

Value source: the supplement of paper PMC9938120
